molecular target: N-terminal Xaa-Pro-Lys N-methyltransferase 1 (Homo sapiens); assay: qHTS Assay for Inhibitors of N-terminal methyltransferase 1 (NTMT1): MTaseGlo Assay Confirmatory Screen, Round 1; conditions: Recombinant NTMT1, MTase-Glo SAH luminescence; series mostly up to 57.1 µM
Results filed as inconclusive are left out. Active and inactive are the calls of the source. Calls follow the shape of the dose curve; as a rule, active = well fitted inhibition curve with a large enough effect; inconclusive = small, poorly fitted or top-dose-only effect; inactive = no such curve, though single readings can be large or run the other way.
Endpoint label: outcome

Guide cases for outcome, answers given:
| Compound | outcome |
| --- | --- |
| Nc1ncnc2c1ncn2[C@@H]1O[C@H](COP(=O)(O)OP(=O)(O)OP(=O)(O)O)[C@H]2OC3(O[C@H]21)C([N+](=O)[O-])=CC(=[N+]([O-])[O-])C=C3[N+](=O)[O-] (some centres not stated) | inactive |
| Nc1ncnc2c1ncn2[C@@H]1O[C@@H]2CO[P@](=O)(S)O[C@H]2[C@H]1O | inactive |
| Nc1ncnc2c1ncn2[C@@H]1O[C@@H]2COP(O)(=S)O[C@H]2[C@H]1O (some centres not stated) | inactive |
| Nc1ncnc2c1nc(Sc1ccc(Cl)cc1)n2[C@@H]1O[C@@H]2COP(O)(=S)O[C@H]2[C@H]1O (some centres not stated) | inactive |

Ask: Requested field: outcome. Item: "CCN(CC)c1ncnc2c1ncn2[C@@H]1O[C@H](COP(=O)(O)OP(=O)(O)C(Br)(Br)P(=O)(O)O)[C@@H](O)[C@H]1O"
Reply: inactive

Ask: Also CCNC(=O)[C@H]1O[C@@H](n2cnc3c(N)ncnc32)[C@H](O)C1O (some centres not stated) , if possible.
Reply: inactive

Ask: What do you have for "Nc1ncnc2c1ncn2[C@@H]1O[C@H](COP(=O)(O)CP(=O)(O)O)[C@@H](O)[C@H]1O" ?
Reply: inactive

This collection of values is drawn from PubChem BioAssay AID1347145.
